System: P388 leukemia ip, CD2F1 mice, survival T/C
Assay Overview: NCI In Vivo Anticancer Drug Screen. Data for tumor model P388 Leukemia (intraperitoneal) in CD2F1 (CDF1) mice
Run Parameters: endpoint: median survival time; dose: 25.0 mg/kg/injection; schedule: Q01DX009 (ip); vehicle: water; higher = longer survival
Inconclusive results and toxic doses are left out.
Assignment: determine reported T/C for the given molecules.

CP(=O)(NN)c1ccccc1 (centres undefined): 96 % of control
COc1ccc(-c2nccc3cc(OC)c(OC)cc23)cc1OC: 106 % of control
O=C(Cn1ccnc1[N+](=O)[O-])NCCO: 105 % of control

Moving on to another molecule below.
// T/C value for CC1=NNC2(CCCCC2)C1 : 103 % of control
